Entry source: the supplement of paper PMC10567573

protein stability index overview
B1: KLHL12 (parent)
chain: SMTTPRCYVGATVLRGRLYAIAGY

- Variants of: B1
- Assay protocol: protein stability index of a GFP-peptide fusion (GPS, HEK-293T) (PSI 1-6); higher = more stable;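 further: lentivirally expressed fusions sorted by FACS into six bins by GFP to DsRed ratio, PSI derived from sequencing read proportions per bin multiplied by bin number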
- Conditions: c terminus: a fixed tail appended

# Variant identifier, protein stability index
measured = [
    ("R17F", 3.17),
    ("S1A", 1.85),
    ("A22R", 2.86),
    ("L18Y", 2.68),
    ("M2N", 2.96),
    ("R6A", 1.73),
    ("L18F", 2.67),
    ("Y24D", 2.03),
    ("C7I", 3.84),
    ("P5Y", 2.19),
    ("V9S", 1.82),
    ("A11G", 1.33),
    ("G23P", 2.39),
    ("A11K", 2.19),
    ("S1F", 2.24),
    ("V9A", 2),
    ("L18I", 1.68),
    ("G10L", 2.13),
    ("V13D", 1.28),
    ("I21H", 1.59),
    ("C7L", 3.82),
    ("Y19T", 2.02),
]
